Test system: K-562 leukemia
ASSAY_NOTES: NCI-60 one-dose screen, 48 h
EXPERIMENTAL_SETUP: 10 µM unless noted
About 83,000 compounds went through this panel and 20% of them were active in at least one assay; those are over-represented in the sample as a whole. Active and inactive are the calls of the source. The calls were made as follows: active = growth percent below 10; inactive = the rest.
Classes used: active, inactive

{"COMPOUND": "C[C@H]1C[C@@H](n2cnc3c(N)nccc32)[C@H](O)[C@@H]1O", "ASSIGNED_CATEGORY": "inactive"}
{"COMPOUND": "O=C(NC1CCN(Cc2ccccc2)CC1)c1cc(-c2cccnc2)nc2ccc(Cl)cc12", "ASSIGNED_CATEGORY": "active"}
{"COMPOUND": "C=C[C@]1(C)C=C2C(=O)[C@@]3(O)OC[C@@]4(CCCC(C)(C)C43O)C2(O)C(O)C1 (stereo partly specified)", "ASSIGNED_CATEGORY": "inactive"}
{"COMPOUND": "CCCCCCCCCCCCCCCCC(=O)O.CCCCCCCCCCCCCCCCCC(=O)O.CCCCCCCCCCCCCCCCCC(=O)O.CCCCCCCCCCCCCCCCCC(=O)O.CCCCCCCCCCCCCCCCCC(=O)O.CO[CH-]OC12COC1CC(O)C1(C)C(O)C(OC(C)O)C3=C(C)C(OC(=O)C(O)C([NH-])c4ccccc4)CC(O)(C(OC(=O)c4ccccc4)C21)C3(C)C.[Cu+].[Zn].[Zn].[Zn].[Zn].[Zn] (stereo unspecified)", "ASSIGNED_CATEGORY": "active"}
{"COMPOUND": "CC(C)OCC1CO1 (stereo unspecified)", "ASSIGNED_CATEGORY": "inactive"}
{"COMPOUND": "Nc1cc(N)c2nc(NCCc3ccc(Cl)c(Cl)c3)cnc2c1", "ASSIGNED_CATEGORY": "active"}
{"COMPOUND": "CCCCN(CCCC)CC(O)CN(CC)CC (stereo unspecified)", "ASSIGNED_CATEGORY": "inactive"}
{"COMPOUND": "O=[N+]([O-])c1ccc(-c2ncc(-c3ccc(O)cc3O)[nH]2)cc1", "ASSIGNED_CATEGORY": "inactive"}
{"COMPOUND": "Clc1ccc(N/N=C(\\c2ccccc2)c2ccccn2)nc1", "ASSIGNED_CATEGORY": "active"}
{"COMPOUND": "CCCNC(=O)Oc1ccc(/C(=C(/C)Cc2ccc(OC)cc2)c2ccc(OCCN3CCCC3)cc2)cc1", "ASSIGNED_CATEGORY": "active"}
{"COMPOUND": "COc1ccc(CN2C(=O)/C(=C\\C(=O)c3ccc(OCCN4CCCCC4)cc3)c3ccccc32)cc1", "ASSIGNED_CATEGORY": "active"}
{"COMPOUND": "CCOC(=O)c1c(C)oc2ncnc(Nc3ccc(NC(=O)Nc4cccc(Cl)c4)cc3)c12", "ASSIGNED_CATEGORY": "inactive"}
{"COMPOUND": "COc1cc(OC)cc(-c2ccc(-c3ccc(C(=N)N)cc3)s2)c1", "ASSIGNED_CATEGORY": "active"}
{"COMPOUND": "COc1ccc(CNCCCN2C(=O)c3ccc4c5c(ccc(c35)C2=O)C(=O)N(CCCNCc2ccc(OC)c(OC)c2OC)C4=O)c(OC)c1OC", "ASSIGNED_CATEGORY": "active"}
{"COMPOUND": "CC(=O)Nc1nc(C)c(C(=O)NNS(=O)(=O)c2ccccc2)s1", "ASSIGNED_CATEGORY": "inactive"}
{"COMPOUND": "O=C(/C=C\\c1ccccc1Cl)c1ccccc1", "ASSIGNED_CATEGORY": "inactive"}
{"COMPOUND": "N=c1c2c(=O)n3c(nc2nc2sc4ccc(Cl)cc4n12)-c1ccccc1Sc1ccccc1-3", "ASSIGNED_CATEGORY": "inactive"}
{"COMPOUND": "CC(=O)OC1/C=C\\CC/C=C\\C1 (stereo unspecified)", "ASSIGNED_CATEGORY": "inactive"}
{"COMPOUND": "O=C(Nc1cccc(Cn2c(=O)[nH]c3ccc(Oc4ncccn4)cc3c2=O)c1)c1cc(Cl)cc(Cl)c1", "ASSIGNED_CATEGORY": "active"}
{"COMPOUND": "CC(C)(C)OC(=O)N1C/C(=C\\c2ccccc2)C(=O)/C(=C/c2ccccc2)C1", "ASSIGNED_CATEGORY": "inactive"}
{"COMPOUND": "CCC(C)C1NC(=O)C(CCCCN)NC(=O)C(CCCCN)NC(=O)C(CC(C)C)NC(=O)C(CCCCN)NC(=O)C(C(C)CC)NC(=O)C(C(C)C)NC(=O)C(C(C)CC)NC(=O)C(CCCCN)NC(=O)C(CCCCN)NC(=O)C(C)NC(=O)C(CCCCN)NC(=O)C(CC(C)C)NC1=O (stereo unspecified)", "ASSIGNED_CATEGORY": "active"}
{"COMPOUND": "CCc1c(C)c2ccc(OCC(=O)N=Nc3c(O)[nH]c4ccccc34)c(C)c2oc1=O", "ASSIGNED_CATEGORY": "active"}
{"COMPOUND": "C#CCCCCCCC[C@@H]1OC(=O)[C@H]([C@@H](C)CC)NC(=O)[C@@H]([C@@H](C)CC)NC(=O)CC(=O)[C@@H]1C", "ASSIGNED_CATEGORY": "inactive"}
{"COMPOUND": "Cc1cc2c(-c3nc4ccccc4n3C)c(O)c(O)cc2c(O)c1-c1c(C)cc2c(-c3nc4ccccc4n3C)c(O)c(O)cc2c1O", "ASSIGNED_CATEGORY": "inactive"}
{"COMPOUND": "N#CCCCCCCCCCCC#N", "ASSIGNED_CATEGORY": "inactive"}
{"COMPOUND": "CCCCCCCCCc1cc[n+](CC(=O)c2ccc([N+](=O)[O-])cc2)cc1", "ASSIGNED_CATEGORY": "active"}
{"COMPOUND": "O=C(Nc1cccc2[nH]c(C(F)(F)F)nc12)c1ccc(F)cc1", "ASSIGNED_CATEGORY": "inactive"}
{"COMPOUND": "COc1ccc(Nc2c3ccccc3nc3ccccc23)cc1", "ASSIGNED_CATEGORY": "inactive"}
{"COMPOUND": "COc1ccc(/C=C2\\CCCC3=C2N=C2SC=NN2C3c2ccc(OC)c(OC)c2)cc1OC (stereo unspecified)", "ASSIGNED_CATEGORY": "inactive"}
{"COMPOUND": "CNc1ccc(Nc2ccc(S(=O)(=O)O)cc2)c2c1C(=O)c1ccccc1C2=O", "ASSIGNED_CATEGORY": "inactive"}
{"COMPOUND": "COC(=O)[C@H](Cc1cn(C)cn1)NC(=O)[C@@H](NC(=O)Nc1cc(C(F)(F)F)cc(C(F)(F)F)c1)C(C)(C)C", "ASSIGNED_CATEGORY": "active"}
{"COMPOUND": "COC(=O)C(Cc1cnc[nH]1)N1CC(=O)N2[C@@H](c3ccccc3)SC[C@H]2C1=O (stereo partly specified)", "ASSIGNED_CATEGORY": "inactive"}
{"COMPOUND": "COC(=O)c1ccc2[nH]c(O)c(C(=Nc3ccc(N(C)C(=O)CN4CCN(C)CC4)cc3)c3ccc(OC)cc3)c2c1", "ASSIGNED_CATEGORY": "active"}
{"COMPOUND": "CCOC(=O)NC1=NCC(C)(C)S1", "ASSIGNED_CATEGORY": "inactive"}
{"COMPOUND": "CCn1cc(C(=O)O)c(=O)c2cc(F)c(N3CCN(S(=O)(=O)c4ccc(Cl)cc4)CC3)cc21", "ASSIGNED_CATEGORY": "inactive"}
{"COMPOUND": "CCN(CC)CCCC(C)Nc1c(C)cnc2cc(Cl)c(C)cc12 (stereo unspecified)", "ASSIGNED_CATEGORY": "active"}
